assay: HepG2 cell viability effects, profiling panel, calcein-AM fluorescence, 48 h, basal (AID 1164); conditions: higher = more signal; note: test concentration not given here
readout.kind: z-score
Keep it simple and answer with nothing but the number.

>>> meas_value("C#CCCCON=C1C[C@@H](O)[C@@H](O)[C@@H]2[C@@H]3C(=O)N(C(C)(C)C)C(=O)[C@@H]3CC[C@H]12")
0.673

Consider CCOC(=O)[C@H](Cc1ccccc1)NC(=O)CCC1CC(OC(=O)NCc2cccc3ccccc23)CC2(CCCC(COC(=O)NCc3ccccc3)O2)O1 (stereo partly drawn) . Its measured z-score is -1.03

Consider CC(=O)O[C@H]1C2=CO[C@H](C)[C@H]3[C@H]4C5=C([C@H](O)[C@H]6O[C@H]6C5=O)[C@H](OC4C)[C@@]23C(=O)[C@@H]2O[C@@H]21 (stereo partly drawn) . Its measured z-score is -3.46

----------
target: Dickkopf-related protein 1 (Homo sapiens) (UniProt O94907); assay: DKK1 binders on small-molecule microarrays, primary screen, biochemical, small-molecule microarray, 635 nm fluorescence scan (AID 1106); conditions: DKK1 binding, higher = more signal;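 note: score merges emission near 667 nm with signal to noise over three replicate slides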
Sequence (O94907 whole entry, looked up): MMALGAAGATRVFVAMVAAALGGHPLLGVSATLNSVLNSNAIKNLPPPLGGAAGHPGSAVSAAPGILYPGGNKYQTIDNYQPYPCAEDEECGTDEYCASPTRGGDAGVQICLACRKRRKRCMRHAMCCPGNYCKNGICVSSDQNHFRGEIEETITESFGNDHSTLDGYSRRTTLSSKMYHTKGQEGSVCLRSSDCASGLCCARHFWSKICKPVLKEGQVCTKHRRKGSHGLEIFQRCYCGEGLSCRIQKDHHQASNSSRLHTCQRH
Listed below: composite z-score values for each entry.
Keep it simple and answer with nothing but the number.

>>> meas_value("C#CCCCON=C1C[C@@H](O)[C@@H](O)[C@@H]2[C@@H]3C(=O)N(C(C)(C)C)C(=O)[C@@H]3CC[C@H]12")
-0.996
>>> meas_value("CCOC(=O)[C@H](CC(C)C)NC(=O)CCC1CC(OC(=O)NCc2ccc3c(c2)OCO3)CC2(CCCC(COC(=O)NCCCN3CCCC3=O)O2)O1 (stereo partly drawn)")
0.509

Then this compound:
Consider `C[C@@H](ON=C1[C@H]2CCn3c(=O)n(-c4ccccc4)c(=O)n3[C@H]2[C@H](O)[C@@H]2O[C@H]12)c1cn([C@@H]2COC[C@H]2O)nn1` . Its measured composite z-score is 0.446

----------
target: Homeobox protein Hox-A13 (Mus musculus); assay: inhibitors of HoxA13-DNA binding, primary screen, biochemical, fluorescence polarization, labeled oligonucleotide (AID 1185); details: 15 min, higher = more signal, called active from +8 up or from −8 down
Rule: z-score under -4 gives Not fulfilled, otherwise Fulfilled.

Check out these entries, answers already filled in.
>>> label_value("O=C1C[C@@H](O)[C@@H](O)[C@@H]2[C@@H]3C(=O)N(Cc4ccc5c(c4)OCO5)C(=O)[C@@H]3CC[C@H]12")
"Fulfilled"
>>> label_value("COc1cccc([C@H]2Oc3ccc(OC)cc3C(=NOC(C)CN3CCCCc4nc(C)c(C)cc43)[C@@H]2O)c1 (some centres not stated)")
"Not fulfilled"
>>> label_value("CCOC(=O)[C@H](CC(C)C)NC(=O)CCC1CC(OC(=O)NCCc2ccc(F)cc2)CC2(CCCC(COC(=O)NCC(c3ccccc3)c3ccccc3)O2)O1 (some centres not stated)")
"Not fulfilled"
>>> label_value("CCOC(=O)[C@H](CC(C)C)NC(=O)CCC1CC(OC(=O)NCc2cccc3ccccc23)CC2(CCCC(COC(=O)NCCOc3ccccc3)O2)O1 (some centres not stated)")
"Fulfilled"
>>> label_value("C=C(C)C(=O)OCC1CN2[C@@H](CC[C@@H](C)[C@@H]2c2ccc(Br)cc2)C(=O)O1 (some centres not stated)")
"Fulfilled"

## Input Does z-score meet or surpass -4 for `C=CC[C@@H]1C=C[C@H](ON=C(C)CCC(=O)OC[C@H]2O[C@H](C#Cc3ccccc3)C=C[C@@H]2Oc2ccc(C)cc2)[C@@H](CO)O1` ?
## Output Not fulfilled

## Input Does z-score meet or surpass -4 for `CC(=O)OC[C@H]1O[C@H](C#Cc2ccccc2)C=C[C@@H]1OC(C)=O` ?
## Output Fulfilled
